- Tested on: SAOS
- procedure-summary: Cytotoxicity in vitro (CellTiter-Glo viability), SAOS
- Type: cell-based, human
- condition-summary: SAOS (OS), 72 hours
Non-standard residues stand in square brackets, D forms with d. Residues, ends and D or L forms follow the SMILES beside them. *: point of attachment. Dolaproine = CO[C@@H]([C@@H]1CCCN1)[C@@H](C)C(=O)O; Dil = CC[C@H](C)[C@H](NC)[C@@H](CC(=O)O)OC; X1 = C[C@@H](N*)[C@@H](O)c1ccccc1; NMeV = CN[C@H](C(=O)O)C(C)C
quantity: EC50
Give the number first and the unit second.

[in] Give EC50 for CC[C@H](C)[C@@H]([C@@H](CC(=O)N1CCC[C@H]1[C@H](OC)[C@@H](C)C(=O)N[C@H](C)[C@@H](O)c1ccccc1)OC)N(C)C(=O)[C@@H](NC(=O)[C@@H](NC)C(C)C)C(C)C [MMAE, monomethyl auristatin E, reference compound] (H-[NMeV]V[Dil][Dolaproine]-X1) tested on SAOS.
[out] 0.05 nM
